test: Phase 1 pharmacokinetics (liquid chromatography/tandem mass spectrometry); type: in vivo, human; settings: human, in vivo, oral, 600 mg, phase 1, Day 1, 600 mg; read-out: AUC0-24h, Median
PROPERTY MEASURED: AUC(0-t) (µg·h/mL)
Give bare numbers, in µg·h/mL.

Suppose we examine the compound C1=C/COCc2cc(ccc2OCCN2CCCC2)Nc2nccc(n2)-c2cccc(c2)COC/1 [pacritinib] ; what AUC(0-t) value has been reported?
129

---

test: Phase 1 pharmacokinetics (liquid chromatography/tandem mass spectrometry); assay type: in vivo, human; settings: human, in vivo, po, 200 mg, phase 1, Day 1, 200 mg (HCl and citrate salt cohorts pooled); read-out: AUC0-24h, Mean
PROPERTY MEASURED: AUC(0-t) (ng·h/mL)
One number for each entry, in ng·h/mL.

Suppose we examine the compound C1=C/COCc2cc(ccc2OCCN2CCCC2)Nc2nccc(n2)-c2cccc(c2)COC/1 [pacritinib] ; what AUC(0-t) value has been reported?
93300

---

assay: Phase 1 pharmacokinetics (liquid chromatography/tandem mass spectrometry); format: in vivo, human; details: human, in vivo, oral, 300 mg, phase 1, Day 15, 300 mg; read-out: AUC0-24h, Mean
PROPERTY MEASURED: AUC(0-t) (µg·h/mL)
Numbers only, in µg·h/mL.

Suppose we examine the molecule C1=C/COCc2cc(ccc2OCCN2CCCC2)Nc2nccc(n2)-c2cccc(c2)COC/1 ; what AUC(0-t) value has been reported?
133

---

assay: Phase 1 pharmacokinetics (liquid chromatography/tandem mass spectrometry); type: in vivo, human; conditions: human, in vivo, oral, 400 mg, phase 1, Day 1, 400 mg; read-out: Cmax, Mean
PROPERTY MEASURED: Cmax (ng/mL)
Give bare numbers, in ng/mL.

Suppose we examine the compound C1=C/COCc2cc(ccc2OCCN2CCCC2)Nc2nccc(n2)-c2cccc(c2)COC/1 [pacritinib] ; what Cmax value has been reported?
6280

---

assay: Phase 1 pharmacokinetics (liquid chromatography/tandem mass spectrometry); assay type: in vivo, human; details: human, in vivo, oral, 500 mg, phase 1, Day 15, 500 mg; read-out: Cmax, Median
PROPERTY MEASURED: Cmax (µg/mL)
One number for each entry, in µg/mL.

Suppose we examine the compound C1=C/COCc2cc(ccc2OCCN2CCCC2)Nc2nccc(n2)-c2cccc(c2)COC/1 [pacritinib] ; what Cmax value has been reported?
7.99

---

assay: Phase 1 pharmacokinetics (liquid chromatography/tandem mass spectrometry); assay type: in vivo, human; conditions: human, in vivo, oral, 150 mg, phase 1, Day 1, 150 mg; read-out: AUC0-24h, Mean
PROPERTY MEASURED: AUC(0-t) (µg·h/mL)
One number for each entry, in µg·h/mL.

Suppose we examine the compound C1=C/COCc2cc(ccc2OCCN2CCCC2)Nc2nccc(n2)-c2cccc(c2)COC/1 ; what AUC(0-t) value has been reported?
64.7

---

assay: Phase 1 pharmacokinetics (liquid chromatography/tandem mass spectrometry); format: in vivo, human; settings: human, in vivo, oral, 300 mg, phase 1, Day 1, 300 mg; read-out: Cmax, Median
PROPERTY MEASURED: Cmax (ng/mL)
Numbers only, in ng/mL.

Suppose we examine the compound C1=C/COCc2cc(ccc2OCCN2CCCC2)Nc2nccc(n2)-c2cccc(c2)COC/1 ; what Cmax value has been reported?
5830

---

test: Phase 1 pharmacokinetics (liquid chromatography/tandem mass spectrometry); type: in vivo, human; conditions: human, in vivo, oral, 100 mg, phase 1, Day 15, 100 mg; read-out: Tmax, Median
PROPERTY MEASURED: Tmax

Suppose we examine the compound C1=C/COCc2cc(ccc2OCCN2CCCC2)Nc2nccc(n2)-c2cccc(c2)COC/1 [pacritinib] ; what Tmax value has been reported?
3 h

---

assay: Phase 1 pharmacokinetics (liquid chromatography/tandem mass spectrometry); type: in vivo, human; conditions: human, in vivo, oral, 300 mg, phase 1, Day 15, 300 mg; read-out: Cmax, Mean
PROPERTY MEASURED: Cmax (µg/mL)
Answers are plain numbers, in µg/mL.

Suppose we examine the molecule C1=C/COCc2cc(ccc2OCCN2CCCC2)Nc2nccc(n2)-c2cccc(c2)COC/1 [pacritinib] ; what Cmax value has been reported?
6.41

---

Assay: Phase 1 pharmacokinetics (liquid chromatography/tandem mass spectrometry)
Format: in vivo, human
Conditions: human, in vivo, oral, 150 mg, phase 1, Day 1, 150 mg; read-out: Cmax, Median
Procedure: In phase 1, full PK sampling was performed on days 1 and 15 of cycle 1 and day 1 of cycle 2. Trough PK samples were drawn prior to dosing on days 8 and 22 of cycle 1 and at 24, 48, and 72 h after dosing on day 25 of cycle 1. A sample was collected before dosing on day 1 of cycles 4, 7, and 10. Pacritinib concentrations were determined using a validated liquid chromatography/tandem mass spectrometry method. […]
PROPERTY MEASURED: Cmax (ng/mL)
Give bare numbers, in ng/mL.

Suppose we examine the molecule C1=C/COCc2cc(ccc2OCCN2CCCC2)Nc2nccc(n2)-c2cccc(c2)COC/1 [pacritinib] ; what Cmax value has been reported?
3790

---

Assay: Phase 1 pharmacokinetics (liquid chromatography/tandem mass spectrometry)
Format: in vivo, human
Details: human, in vivo, oral, 100 mg, phase 1, Day 15, 100 mg; read-out: AUC0-24h, Median
Procedure: In phase 1, full PK sampling was performed on days 1 and 15 of cycle 1 and day 1 of cycle 2. Trough PK samples were drawn prior to dosing on days 8 and 22 of cycle 1 and at 24, 48, and 72 h after dosing on day 25 of cycle 1. A sample was collected before dosing on day 1 of cycles 4, 7, and 10. Pacritinib concentrations were determined using a validated liquid chromatography/tandem mass spectrometry method. […]
PROPERTY MEASURED: AUC(0-t)

Suppose we examine the compound C1=C/COCc2cc(ccc2OCCN2CCCC2)Nc2nccc(n2)-c2cccc(c2)COC/1 [pacritinib] ; what AUC(0-t) value has been reported?
121 µg·h/mL

---

assay: Phase 1 pharmacokinetics (liquid chromatography/tandem mass spectrometry); assay type: in vivo, human; conditions: human, in vivo, oral, 500 mg, phase 1, Day 1, 500 mg; read-out: Cmax, Mean
PROPERTY MEASURED: Cmax (ng/mL)
Give bare numbers, in ng/mL.

Suppose we examine the compound C1=C/COCc2cc(ccc2OCCN2CCCC2)Nc2nccc(n2)-c2cccc(c2)COC/1 ; what Cmax value has been reported?
7050

---

experiment: Phase 1 pharmacokinetics (liquid chromatography/tandem mass spectrometry); type: in vivo, human; conditions: human, in vivo, oral, 600 mg, phase 1, Day 1, 600 mg; read-out: Cmax, Median
PROPERTY MEASURED: Cmax (ng/mL)
One number for each entry, in ng/mL.

Suppose we examine the molecule C1=C/COCc2cc(ccc2OCCN2CCCC2)Nc2nccc(n2)-c2cccc(c2)COC/1 ; what Cmax value has been reported?
7880

---

assay: Phase 1 pharmacokinetics (liquid chromatography/tandem mass spectrometry); type: in vivo, human; details: human, in vivo, oral, 600 mg, phase 1, Day 1, 600 mg; read-out: Cmax, Mean
PROPERTY MEASURED: Cmax
Phrase the answer as number then unit, nothing more needed.

Suppose we examine the molecule C1=C/COCc2cc(ccc2OCCN2CCCC2)Nc2nccc(n2)-c2cccc(c2)COC/1 ; what Cmax value has been reported?
8330 ng/mL

---

test: Phase 1 pharmacokinetics (liquid chromatography/tandem mass spectrometry); assay type: in vivo, human; settings: human, in vivo, oral, 100 mg, phase 1, Day 15, 100 mg; read-out: AUC0-24h, Mean
PROPERTY MEASURED: AUC(0-t)

Suppose we examine the compound C1=C/COCc2cc(ccc2OCCN2CCCC2)Nc2nccc(n2)-c2cccc(c2)COC/1 ; what AUC(0-t) value has been reported?
120 µg·h/mL

---

test: Phase 1 pharmacokinetics (liquid chromatography/tandem mass spectrometry); format: in vivo, human; conditions: human, in vivo, oral, 150 mg, phase 1, Day 15, 150 mg; read-out: AUC0-24h, Mean
PROPERTY MEASURED: AUC(0-t) (µg·h/mL)
Give bare numbers, in µg·h/mL.

Suppose we examine the compound C1=C/COCc2cc(ccc2OCCN2CCCC2)Nc2nccc(n2)-c2cccc(c2)COC/1 ; what AUC(0-t) value has been reported?
140

---

assay: Phase 1 pharmacokinetics (liquid chromatography/tandem mass spectrometry); type: in vivo, human; conditions: human, in vivo, oral, 400 mg, phase 1, Day 1, 400 mg; read-out: AUC0-24h, Median
PROPERTY MEASURED: AUC(0-t) (µg·h/mL)
Answers are plain numbers, in µg·h/mL.

Suppose we examine the compound C1=C/COCc2cc(ccc2OCCN2CCCC2)Nc2nccc(n2)-c2cccc(c2)COC/1 ; what AUC(0-t) value has been reported?
118

---

test: Phase 1 pharmacokinetics (liquid chromatography/tandem mass spectrometry); format: in vivo, human; details: human, in vivo, oral, 500 mg, phase 1, Day 15, 500 mg; read-out: Cmax, Mean
PROPERTY MEASURED: Cmax (ng/mL)
Numbers only, in ng/mL.

Suppose we examine the compound C1=C/COCc2cc(ccc2OCCN2CCCC2)Nc2nccc(n2)-c2cccc(c2)COC/1 [pacritinib] ; what Cmax value has been reported?
8730
